# assay-target: B-Raf kinase (Homo sapiens, UniProt P15056)
# Construct: GST (N); purchased Sigma
# Sequence (P15056 416-766): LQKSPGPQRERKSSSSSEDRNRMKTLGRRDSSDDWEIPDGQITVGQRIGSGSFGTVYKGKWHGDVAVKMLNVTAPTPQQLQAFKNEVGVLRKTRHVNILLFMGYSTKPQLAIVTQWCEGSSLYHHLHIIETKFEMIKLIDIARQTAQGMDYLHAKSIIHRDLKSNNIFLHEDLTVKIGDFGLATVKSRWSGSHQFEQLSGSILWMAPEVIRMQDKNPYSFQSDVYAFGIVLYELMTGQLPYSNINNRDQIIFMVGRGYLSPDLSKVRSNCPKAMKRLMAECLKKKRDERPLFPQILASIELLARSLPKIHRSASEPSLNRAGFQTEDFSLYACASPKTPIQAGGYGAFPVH
# test: Biochemical Assay for B-Raf (coupled pyruvate kinase/lactate dehydrogenase assay)
# condition-details: Table 1, inhibition of biochemical activity; read-out: BRAF
result-type: IC50

Cc1ccc(NC(=O)Nc2ccc(C(F)(F)F)nc2)cc1-c1cncc(-c2cc(N)ncn2)c1 [Example 16]	< 100 nM

Batch request: IC50 for each of the following compounds.
1. Cc1ccc(NC(=O)Nc2ccc(C(F)(F)F)nc2)cc1-c1cc(F)nc(N2CCOCC2)c1 [Example 35]
2. CC(=O)Nc1cc(-c2cc(-c3cc(NC(=O)Nc4ccc(C(F)(F)F)nc4)ccc3C)nn(C)c2=O)ccn1 [Example 8]

Return:
["1000 to 10000 nM", "1000 to 10000 nM"]

---

# assay-target: B-Raf kinase (Homo sapiens)
# Construct: GST (N); purchased Sigma
# test: Biochemical Assay for B-Raf (coupled pyruvate kinase/lactate dehydrogenase assay)
# condition-details: Table 1, inhibition of biochemical activity; read-out: BRAF
pIC50: −log10 of the molar value.
Could you please report measured pIC50 for the items listed next?

Worked examples follow.
CC(=O)Nc1cc(-c2cc(-c3cc(NC(=O)Nc4ccc(C(F)(F)F)nc4)ccc3C)cc(OCCO)n2)ccn1	> 7.00
Cc1ccc(NC(=O)Nc2ccc(C(F)(F)F)nc2)cc1-c1cncc(-c2ccnc(NC(=O)CC#N)c2)n1	> 7.00
Cc1ccc(NC(=O)Nc2ccc(C(F)(F)F)nc2)cc1-c1cc(N2CCOCC2)nc(N2CCC(O)CC2)n1	6.30 to 7.00

Enquiry: Data request, read-out pIC50, for CC(=O)Nc1cc(-c2cc(-c3cc(NC(=O)Nc4ccc(C(F)(F)F)nc4)ccc3C)cn(C)c2=O)ccn1
Return: > 7.00

---

# Test system: HCT-116 cells
# test: HCT-116 Cell Proliferation Assay
# Assay type: cell-based
# condition-details: Homo sapiens, HCT-116; Table 4; read-out: HCT-116 IC50
Could you please report measured IC50 for the items listed next?

CNC(=O)c1cc(-c2cnnc(-c3cc(NC(=O)N4CCC(C(C)(C)C)C4)ccc3C)c2)ccn1 (stereo not shown) [reference compound]	1000 to 10000 nM
CC(=O)Nc1cc(-c2cc(-c3cc(NC(=O)Nc4ccc(C(F)(F)F)cc4)cnc3C)ccn2)ccn1 [reference compound]	1000 to 10000 nM

Batch request: IC50 for each of the following compounds.
1. Cc1ccc(NC(=O)Nc2cccc(C(F)(F)F)c2)cc1-c1cc(OCCO)nc(N2CCOCC2)c1 [reference compound]
2. Cc1ccc(NC(=O)N[C@@H]2CCc3ccccc32)cc1-c1cc(OCCO)nc(N2CCOCC2)c1 [reference compound]

Return:
1. 100 to 500 nM
2. 1000 to 10000 nM

---

# assay-target: C-Raf kinase (Homo sapiens, UniProt P04049, Y340D/Y341D)
# Construct: C-Raf residues 306-end; Y340D, Y341D with N-; GST (N); purchased Eurofins
# Sequence (P04049 307-648 Y340D/Y341D): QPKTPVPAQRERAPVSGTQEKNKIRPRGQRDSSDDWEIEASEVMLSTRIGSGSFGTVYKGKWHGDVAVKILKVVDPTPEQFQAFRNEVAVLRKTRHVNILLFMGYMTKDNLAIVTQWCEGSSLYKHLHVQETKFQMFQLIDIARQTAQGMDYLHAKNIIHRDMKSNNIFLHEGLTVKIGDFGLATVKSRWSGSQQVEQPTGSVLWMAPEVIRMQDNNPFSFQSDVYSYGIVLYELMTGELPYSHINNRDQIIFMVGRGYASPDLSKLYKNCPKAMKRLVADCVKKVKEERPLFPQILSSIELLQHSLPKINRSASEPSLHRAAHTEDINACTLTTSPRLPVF
# test: Biochemical Assay for C-Raf (coupled pyruvate kinase/lactate dehydrogenase assay)
# condition-details: Table 4; read-out: CRAF IC50
result-type: IC50

Worked examples follow.
Cc1ccc(NC(=O)Nc2cn(C)nc2C(F)(F)F)cc1-c1cc(OCCO)nc(N2CCOCC2)c1 [reference compound]	1 to 10 µM
CC(=O)Nc1cc(-c2cc(-c3cc(NC(=O)NCCC4(C)CC4)c(F)cc3C)ccn2)ccn1 [reference compound]	< 0.1 µM

Lab note: next compound to report on.
Enquiry: Data request, read-out IC50, for Cc1cc(F)c(NC(=O)NCCC(C)(C)C)cc1-c1cc(OCCO)nc(N2CCOCC2)c1 [reference compound]
Return: < 0.1 µM
